test: in vitro; conditions: human, hela cells, % viability
Binary label based on viability at 28.5 h, 10 µM with cut-off 90%: below gives true, not below gives false.

Below are worked cases with known answers.
molecule	class.assignment
CN(C)CCCC(=O)N1CCN(c2ncccn2)CC1	false
CCc1nn(Cc2ccncc2)c(=O)c2cc3sc(C)cc3n12	true
CC(C)N(CCC(c1ccccc1)c1cc(Br)ccc1OCc1ccccc1)C(C)C (centres unmarked)	true

Here is the next item to consider.
Q: Given the entry `CCOC(=O)CNS(=O)(=O)Cc1ccccc1[N+](=O)[O-]` , would its reported viability at 28.5 h, 10 µM be below 90%?
A: false

---

Reported viability at 28.5 h, 10 µM values for a set of compounds
assay: in vitro; conditions: human, hela cells, % viability
Unit % implied. Number only.

Solved entries (count: 6):
compound	viability at 28.5 h, 10 µM, %
COC(=O)[C@@H]1Cc2ncn(C)c2CN1S(=O)(=O)c1ccc(C#N)cc1	83.9
COC(=O)c1ccccc1S(=O)(=O)Nc1nnn[nH]1	97.8
COc1ccc(OC)c(N2Cc3ccc(OC)c(OC)c3C2=O)c1	82.9
O=C(CSc1nnc(C2CC2)[nH]1)Nc1ccc(SC(F)F)cc1	101
CCCc1c(C)nc2c(OC)cccc2c1SCCC(=O)O	122
Cc1ccsc1CN(Cc1nccn1C)CC(C)O (stereo not drawn)	92.3

Q: Fill blank: measured viability at 28.5 h, 10 µM of the compound OCC1CCN(Cc2cnn(C3CCCCC3)c2)C1 (stereo not drawn) is ____.
A: 88.4

Q: Now consider `O=C(Cc1cccs1)N1CCC(O)(c2cccnc2)CC1` .
A: 104

Q: Now consider `Cn1nnnc1SCCNC(=O)Nc1cccc(N2CCOC2=O)c1` .
A: 84.4

Q: Now consider `COc1ccc(C=CC(=O)ONC(=O)c2ccc(OC(F)F)cc2)cc1OC` .
A: 92.8

Q: Now consider `CS(=O)(=O)N1CC2(CCNCC2)c2ccccc21` .
A: 94.4

Q: Now consider CN1CC(C(=O)N(C)Cc2nc(-c3ccccc3)no2)NC1=O (stereo not drawn) .
A: 108

Q: Now consider `CN(C)c1ccc(-n2ccn(S(=O)(=O)c3ccc4ccccc4c3)c2=O)cc1` .
A: 93.5
